study_target: Nuclear receptor subfamily 1 group I member 2 (Homo sapiens)
assay_protocol: Human pregnane X receptor (PXR) small molecule agonists, qHTS assay (AID 1346982); note: nearly all actives have a fitted effect of over 35% in size
setup_conditions: PXR-Luc HepG2, CYP3A4 luciferase reporter, 24 h; series mostly up to 92.4 µM
Results filed as inconclusive are left out. The source made the active and inactive calls. Calls come from the whole dose curve; as a rule, active = well fitted activation curve with a large enough effect in the repeat runs; inconclusive = weak or mixed curves; inactive = no such curve, though single readings can be large or run the other way.
Give your call using only these classes: active, inactive

Look over these answered cases.
{"columns": ["molecule", "classification"],
 "data": [
  ["CCCOC(=O)c1c(Cl)c(Cl)c(Cl)c(Cl)c1C(=O)OCCC", "active"],
  ["O=C(NC(Cc1cc(=O)[nH]c2ccccc12)C(=O)O)c1ccc(Cl)cc1 (centres undefined)", "inactive"],
  ["O=c1[nH]c2cc(C(F)(F)F)c(N3CCOCC3)cc2n(CP(=O)(O)O)c1=O", "inactive"],
  ["CCN(CC)CCOC(=O)C(c1ccccc1)c1ccccc1", "inactive"],
  ["C=C(C)c1ccccc1", "inactive"]
]}

// query Please state the recorded outcome for this molecule: C=CC(=O)O
// result inactive

// query Please state the recorded outcome for this molecule: CCN(CC)CCOc1ccccc1C(=O)CCc1ccccc1
// result active

These measurements were taken from PubChem BioAssay (Tox21).
